- testDetails: yeast display, Sf9 membrane polyspecificity reagent, FACS + sequencing; frameworks hold sequencing errors
metric: polyreactivity (PSR sort gate)

>  <querySequence>
QVQLVDSGGGVVQAGGSLRLSCPASGRTFRGYAMGWYRQAPGKERELVAAISSGGSTYYADSVKGRFTISRDNAKNTVYLQMNSLKPEDTAVYYCAAGGPSTLDDYWGQGTQVTVSS

>  <polyreactivity (PSR sort gate)>
low polyreactivity

$$$$
>  <querySequence>
QVQLQVSGGGLVQAGGSLRLSCAASGSIFLTSEMGWYRQAPGKERELVAAIATGTSTNYADSVKGRFTISRDNAKNTVYLQMNSLKPEDTAVYYCATYHYWGQGTQVTVSS

>  <polyreactivity (PSR sort gate)>
low polyreactivity

$$$$
>  <querySequence>
QVQLVESGGGLVQAGGSLRLSCAASGSTFIPYAMGWYRQAPGKERELVARITWSDTSTYYADSVKGRFTISRDNAKNTVYLHMNSVKPEDTAVYYCAAKEFSLARGARPRYYYWGQGTQVTVSS

>  <polyreactivity (PSR sort gate)>
high polyreactivity

$$$$
>  <querySequence>
QVQLEESGGGLVQAGGSLRLSCAGSGRIFIHYTMGWYRQAPGKERELVAAISTSGGSTYYADSVKGRFTISRDTAKNTVYLQMKSLKPEDTAGYYCAPVYRGYSGEGYYWGQGSQVTVSS

>  <polyreactivity (PSR sort gate)>
high polyreactivity

$$$$

Proceeding to the next sequence to report its polyreactivity (PSR sort gate).
Prompt: Which value of polyreactivity (PSR sort gate) has been reported for QVQLVESGGGLVQAGGSLRLSSAASGRIIKIYAMGWYRQAPGKERELVAAISGRGGSTYYADSVKGRFTISRDNAKYTVYLQMNSLKPEDTAVYYCAAVGYGFSAYSTYDYWGQGTQVTVSS in the records?
Completion: high polyreactivity

###

- testDetails: yeast display, Sf9 membrane polyspecificity reagent, FACS + sequencing; frameworks hold sequencing errors
metric: polyreactivity (PSR sort gate)

Answered examples (8):
>  <querySequence>
QVQLVESGGGLVQAGGSLRLSCAASGSILLGYDLGWYRQAPGKERELVASIDTNGGSTYYADSVKGRFTISRDNAKNTVYLQMNSLKPEDTAVYYCNADPSFVGGTYDYWGQGTQVTVSS

>  <polyreactivity (PSR sort gate)>
low polyreactivity

$$$$
>  <querySequence>
QVQLVESGGGLVQAGGSLRLSCAASGLIFPIYAMGWYRQAPGKERELVAVITWSGGSTYYADSVKGRFTISRDNAKNTVYLQMNSLKPEDTAVYYCAVEWAYPYWYTYYLEDYWGQGTQVTVSS

>  <polyreactivity (PSR sort gate)>
low polyreactivity

$$$$
>  <querySequence>
EEELVESGGGLVQAGGSLRLSCAASGRTLAGYPMGWYRQAPGKERELVAAISSSGGSTYYADSVKGRFTISRDNAKNTVYLQMNSLKPEDTAVYYCNRYSSYIPYPYNYWGQGTQVTVSS

>  <polyreactivity (PSR sort gate)>
high polyreactivity

$$$$
>  <querySequence>
QVQLVESGGGLVQAGGSLRLSCAASGSIFNKYAMGWYRQAPGKERELVAAISVSGTRTYYADTVKGRFTISRDNAKNTVYLQMNSLKPEDTAVYYCATKFFRTAYESWGQGTQVTVSS

>  <polyreactivity (PSR sort gate)>
high polyreactivity

$$$$
>  <querySequence>
QVQLVESGGGLVQAGGSLRLSCAASGSTFGYYAMGWYRQAPGKERELVAVIRRGGSTNYADSVKGRFTISRENAKNTVYLQMHSLKPEDTAVYYCAKSQRGTVYSYYYWGQGSQVTVSS

>  <polyreactivity (PSR sort gate)>
high polyreactivity

$$$$
>  <querySequence>
QVQLVESGGGLVQAGGSLRLSCAASGRIFTQYAMGWYRQAPGKERELVAAINASDGSTYYADSVKGRFTISRDNAKNTVYLQMNSLKPEDTAVYYCAGYAYNAIEYGYWGQGTQVTVSS

>  <polyreactivity (PSR sort gate)>
low polyreactivity

$$$$
>  <querySequence>
QVQLVESGGGLVQAGCSLRLSCAASGFIFIRYAKGWYRQAPGQESELVASISSGGSTYYADSVKGRFTISRDNAKNTVYLQMNSLKPEDTAVYYCAAVFSKGLEGDYWGQGTQVTVSS

>  <polyreactivity (PSR sort gate)>
high polyreactivity

$$$$
>  <querySequence>
QVQIVESGGGLFQAGGSLRLSCAASGRIFDPYSMGWYRQAPGKERELVASISWSGGRTYYADSVKGRFTISRDNAKNTVYLQMNSLKPEDTAVYYCARRFYKGTSKTNLFDFWGQVTQVTVSS

>  <polyreactivity (PSR sort gate)>
high polyreactivity

$$$$

Prompt: Which value of polyreactivity (PSR sort gate) has been reported for QVQLVESGGGLVQAGGSLRLSCAASGRIFDVNAMGWYRQAPGKEREFVAAINSRGDSTYYADSVKGRFTISRDNAKNTVYLQMNSLKPEDTAVYYCNVRGYSYSYRFWRYDYWGQGTQVTVSS in the records?
Completion: high polyreactivity

Prompt: Record: LVQLQESGGGLVQAGGSLRLSCAASGTISPGGYMGWYRQAPGKERELVASINVGGSTNYADSVKGRFTISRDNAKNTVYLQMNSLKQEDNAVYYCAVWGRNRLQLSYWGQGTQVTVSS
Completion: low polyreactivity

Prompt: Record: QVQLVESGGGLVQAGGSLRLSCAASGIIFTPYNMGWYRQAPGKERELVAASTGSGGSTYYADSVKGRFTISRDNAKNTVDLQMNSLKPEDTAVYYCAAYKQYRFYRYDYWGQGTQVTVSS
Completion: high polyreactivity

###

- testDetails: yeast display, Sf9 membrane polyspecificity reagent, FACS + sequencing; frameworks hold sequencing errors
metric: polyreactivity (PSR sort gate)

>  <querySequence>
QVQLVESGGGLVQAGGSLRLSCAASGSILKPYAMRSYRQAPGKERELVAAISGTGGSTYYADSVKGRFTISRDNAKNTVYLQMNSLKPEDTAVYYCNADEFRYAFEYWGQGTQVTVSW

>  <polyreactivity (PSR sort gate)>
high polyreactivity

$$$$
>  <querySequence>
QVQLVESGGGLVQAGGSLRLSCAASGRIFLWYAMGWYRKAPGKERELVADISSNGGSTRYADSVKGRFAISRDNEKNTVYLQMNILKPEDTAVYYCNADVHWNRYRYGGNGYGYWGQGTQVTVSS

>  <polyreactivity (PSR sort gate)>
low polyreactivity

$$$$
>  <querySequence>
QEQLQESGGGLVQAGCSLRLSCAANGYIFSVEDMGRYCLAPGKEREFVATINYDTSTYYADSVKGSFTISRDNAKKTVYLQMNSLKPEDTEVYYCEAYFYAYRSPGYWGQGTQVTVSS

>  <polyreactivity (PSR sort gate)>
high polyreactivity

$$$$
>  <querySequence>
QVQLVESGGGLVQAGGSLRLSCAASGSIFDPNAMGWYRQAPGKEREFVAAISYGGGSTTYADSVKGRFTISRDNAKNTVYLQMNSLKPEDTAVYYCAAGFYTYPTWFHPGYLFSAGDYWGQGTQVTVSS

>  <polyreactivity (PSR sort gate)>
low polyreactivity

$$$$
>  <querySequence>
QVQLVESAGGLVQAGGSLRLSCAASGSTFVGYAMGWYRQAPGKERELVAAISGSGTSTYYADSVKGRFTISRDNAKNTVYLQMNSLKPEDTAVYYCNADPIFVYSSYNYWGQGTQVTVSS

>  <polyreactivity (PSR sort gate)>
low polyreactivity

$$$$
>  <querySequence>
QVQLVESGGGLVQAGGSLRLSCAASGRTFYGNAMGWYRQAPGKEREFVAGISWRGGRTYYADSVKGRFTISRDNAKNTVYLQMNSLKPEDTAVYYCAASAGYRGRKQYHENGYWGQGTQVTVSS

>  <polyreactivity (PSR sort gate)>
high polyreactivity

$$$$
>  <querySequence>
QGQLVESGGGLVQAGGSLRLSCAASGIIFEYYDMGWYRQAPGKERELVAAIDSGGSTYYADSVKGRFTISRDNAKNTVYLQMNSLKPEDTAVYYCAASRPPNTSNTGYGSWGQGTQVTVSS

>  <polyreactivity (PSR sort gate)>
low polyreactivity

$$$$
>  <querySequence>
QVQLQESGGGLVQVGGSQRLSCAASGNIFYNYAMGWYRHAQGKEREFDATINHGTSINYADSVKGRFTISRDNAKNTVYLQMNSLKPEDTAVYYCAARVVRYGYKYYYWGQGTQVTLSS

>  <polyreactivity (PSR sort gate)>
low polyreactivity

$$$$
>  <querySequence>
QVQLVESGGGLVQAGGSLRLSCAASGLTFPWYAMGWYRQAPGKERELVASINSSTGSTYYADSVKGRFTISRDNAKNTVYLQMNSLKPEDTAVYYCAAVEYGNMDWGQGTQVTVSS

>  <polyreactivity (PSR sort gate)>
low polyreactivity

$$$$
>  <querySequence>
QVQLVESGGGLVQAGCSLRLSCAASGSIFAYYTMGWYRQAAGKERELVATISSGDITNYADSVKGRFTISRDNAKNSVYLQMNSLKPEDTAVYFCAAAELTSYYRTFIHKDYDFWGQGTQVSVSS

>  <polyreactivity (PSR sort gate)>
low polyreactivity

$$$$

Proceeding to the next sequence to report its polyreactivity (PSR sort gate).
Prompt: Which value of polyreactivity (PSR sort gate) has been reported for QVQLVEAGVCLVQSGGRLRLSCAATGFTFTSKVIGWSRQAPGKERELVADISASDGRTYYADSVKGRFRISRENAKNTVYLQMNRLKTEDTAVYYCAASLWVYVGQARYHWYDYWGQGTQVTVSS in the records?
Completion: low polyreactivity
